experiment: in vivo; conditions: female, BALB/c, mouse, iv, 5 mg/kg, AUClast

[
  {
    "test-smiles": "Cc1ccc(NC(=O)c2ccc3c(c2)OCCO3)cc1NC(=O)c1ccc2nc(OCCN3CCCC3)ccc2c1",
    "readout-units": "µM·h",
    "AUC(0-t)": 14.1
  }
]

---

assay: in vivo; settings: female, BALB/c, mouse, iv, 5 mg/kg, AUCinf
measurement-name: AUC(0-inf) (µM·h)

[
  {
    "test-smiles": "Cc1ccc(NC(=O)c2ccc3c(c2)OCCO3)cc1NC(=O)c1ccc2nc(OCCN3CCCC3)ccc2c1",
    "numeric-result": 14.8
  }
]
